The values you see were collected from ChEMBL document CHEMBL3046087.

Test: Drug level in glyphosate-resistant Zea mays (maize) at growth inhibition I50 level rate measured 7 days post treatment
Format: organism-based
Settings: in vivo, read-out: Drug uptake
observation.type: concentration at 168 h
Answer format: number, then unit.

Data request: # query: concentration at 168 h of entry O=C(O)CNCP(=O)(O)O [GLYPHOSATE]
Data returned: 308 ng/g

====

Assay: Drug level in non glyphosate-resistant Zea mays (maize) at growth inhibition I50 level rate measured 7 days post treatment
Type: organism-based
Conditions: in vivo, read-out: Drug uptake
observation.type: concentration at 168 h (ng/g)
The response must be a number in ng/g with no trailing unit.

Data request: # query: concentration at 168 h of entry O=C(O)CNCP(=O)(O)O [GLYPHOSATE]
Data returned: 851

====

Experiment: Drug level in Sesbania herbacea at growth inhibition I50 level rate measured 7 days post treatment
Format: organism-based
Settings: in vivo, read-out: Drug uptake
observation.type: concentration at 168 h

Data request: # query: concentration at 168 h of entry O=C(O)CNCP(=O)(O)O [GLYPHOSATE]
Data returned: 38600 ng/g

====

Experiment: Drug level in Conyza canadensis (horseweed) at growth inhibition I50 level rate measured 7 days post treatment
Type: organism-based
Conditions: erigeron canadensis, in vivo; read-out: Drug uptake
observation.type: concentration at 168 h (ng/g)
The response must be a number in ng/g with no trailing unit.

Data request: # query: concentration at 168 h of entry O=C(O)CNCP(=O)(O)O [GLYPHOSATE]
Data returned: 26300

====

Experiment: Drug level in non glyphosate-resistant Glycine max (soybean) at growth inhibition I50 level rate measured 7 days post treatment
Format: organism-based
Settings: in vivo, read-out: Drug uptake
observation.type: concentration at 168 h (ng/g)
The response must be a number in ng/g with no trailing unit.

Data request: # query: concentration at 168 h of entry O=C(O)CNCP(=O)(O)O [GLYPHOSATE]
Data returned: 25000

====

Assay: Drug level in glyphosate-resistant Glycine max (soybean) at growth inhibition I50 level rate measured 7 days post treatment
Assay type: organism-based
Details: in vivo, read-out: Drug uptake
observation.type: concentration at 168 h (ng/g)
The response must be a number in ng/g with no trailing unit.

Data request: # query: concentration at 168 h of entry O=C(O)CNCP(=O)(O)O [GLYPHOSATE]
Data returned: 5830

====

Experiment: Drug level in Desmanthus illinoensis (Illinois bundleflower) at growth inhibition I50 level rate measured 7 days post treatment
Format: organism-based
Conditions: in vivo, read-out: Drug uptake
observation.type: concentration at 168 h (ng/g)
The response must be a number in ng/g with no trailing unit.

Data request: # query: concentration at 168 h of entry O=C(O)CNCP(=O)(O)O [GLYPHOSATE]
Data returned: 3270

====

Experiment: Drug level in Abutilon theophrasti (velvetleaf) at growth inhibition I50 level rate measured 7 days post treatment
Format: organism-based
Details: in vivo, read-out: Drug uptake
observation.type: concentration at 168 h (ng/g)
The response must be a number in ng/g with no trailing unit.

Data request: # query: concentration at 168 h of entry O=C(O)CNCP(=O)(O)O [GLYPHOSATE]
Data returned: 678

====

Assay: Drug level in Pueraria montana var. lobata ( kudzu) at growth inhibition I50 level rate measured 7 days post treatment
Type: organism-based
Settings: in vivo, read-out: Drug uptake
observation.type: concentration at 168 h
Answer format: number, then unit.

Data request: # query: concentration at 168 h of entry O=C(O)CNCP(=O)(O)O [GLYPHOSATE]
Data returned: 5560 ng/g
